Hello, the source for this data is ChEMBL document CHEMBL3526109, in case you need it.

Tested on: Plasma
Assay: Drug level in human plasma assessed as compound formation treated with [14C]brivanib alaninate at 800 mg, po administered as single dose via gavage measured after 4 hrs by HPLC analysis
Assay type: ADME, organism-based
Settings: in vivo
reported_endpoint: Compound recovery (%)

{"columns": ["smiles_string", "measured_number"],
 "data": [
  ["Cc1c(OS(=O)(=O)O)cn2ncnc(Oc3ccc4[nH]c(C(=O)O)cc4c3F)c12", 20],
  ["Cc1cc2c(F)c(Oc3ncnn4cc(OC[C@@H](C)OS(=O)(=O)O)c(C)c34)ccc2[nH]1", 3.6],
  ["Cc1cc2c(F)c(Oc3ncnn4cc(OC[C@@H](C)O)c(C)c34)ccc2[nH]1", 57.1],
  ["Cc1c(OC[C@@H](C)OS(=O)(=O)O)cn2ncnc(Oc3ccc4[nH]c(CO)cc4c3F)c12", 3.6],
  ["Cc1c(OC[C@@H](C)O)cn2ncnc(Oc3ccc4[nH]c(C(=O)O)cc4c3F)c12", 11.4],
  ["Cc1cc2c(F)c(Oc3ncnn4cc(OS(=O)(=O)O)c(C)c34)ccc2[nH]1", 4.4]
]}
